target-system: activated MMP-9 (Homo sapiens, UniProt P14780)
Sequence (P14780 107-707 limits assumed): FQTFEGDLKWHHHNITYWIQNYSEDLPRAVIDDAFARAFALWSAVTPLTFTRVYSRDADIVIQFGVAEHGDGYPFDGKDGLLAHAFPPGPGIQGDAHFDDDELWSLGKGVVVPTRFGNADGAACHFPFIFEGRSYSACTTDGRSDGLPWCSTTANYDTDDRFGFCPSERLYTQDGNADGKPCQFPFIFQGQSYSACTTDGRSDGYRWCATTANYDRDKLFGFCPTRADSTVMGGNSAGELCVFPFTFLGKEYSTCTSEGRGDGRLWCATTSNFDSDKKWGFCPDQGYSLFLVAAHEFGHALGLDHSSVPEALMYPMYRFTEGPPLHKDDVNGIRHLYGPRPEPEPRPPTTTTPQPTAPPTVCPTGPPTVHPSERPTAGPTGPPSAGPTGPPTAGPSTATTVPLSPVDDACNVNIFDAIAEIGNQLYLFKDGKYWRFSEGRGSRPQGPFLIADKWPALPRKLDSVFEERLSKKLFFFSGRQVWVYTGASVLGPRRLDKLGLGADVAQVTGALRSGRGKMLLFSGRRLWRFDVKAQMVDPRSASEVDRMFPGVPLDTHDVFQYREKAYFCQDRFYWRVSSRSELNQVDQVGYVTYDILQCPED
assay-comment: fluorometric in vitro MMP-9 inhibition assay
condition-summary: SD from three independent experiments; enzyme 2 nM, 37 °C, 30 min preincubation
Experimental: The inhibition potencies of (R)-9a and (S)-9a against activated MMP-2 and -9 were assayed using the synthetic fluorometric substrate (7-methoxycoumarin-4-yl)acetyl-Pro-Leu-Gly-Leu-(3-(2,4-dinitrophenyl)-L-2,3-diaminopropionyl)Ala-Arg-NH2 (R&D Systems) as described previously (Huang et al. [1997]). […] Reaction rates were measured from the initial 10 min and plotted as a function of inhibitor concentration. […]
# maps each entry to its pIC50
Interpret pIC50 as the negative base-10 log of the concentration measured in mol/L.

# molecule, quantitative-result
rows = [
    ("C=C(F)C[C@@H](C(=O)NO)N(Cc1ccccc1)S(=O)(=O)c1ccc(OCCF)cc1 [(S)-9a]", 10.00),
]

Then there is this molecule:
// pIC50 value for C=C(F)C[C@H](C(=O)NO)N(Cc1ccccc1)S(=O)(=O)c1ccc(OCCF)cc1 [(R)-9a] : 9.30
